Data provenance is PubChem BioAssay (NCI).

Tested on: SNB-19 CNS
Experiment: NCI-60 one-dose screen, 48 h (100 = growth as untreated, 0 = no growth, -100 = all killed)
Settings: 10 µM unless noted
About 83,000 compounds went through this panel and 20% of them were active in at least one assay; those are over-represented in the sample as a whole. The source made the active and inactive calls. The calls were made as follows: active = growth percent below 10; inactive = the rest.
Recorded growth, one value per entry.
Reported property: growth

* O=S(=O)(Nc1ccc(-c2nc(-c3cccc(O)c3)c(-c3ccnc(Br)c3)[nH]2)cc1)c1ccccc1 | 30.2% (inactive)
* COc1ccc([C@@H]2[C@@H](O)C(=O)N2c2cc(OC)c(OC)c(OC)c2)cc1Cl | 30% (inactive)
* CN1CCN(c2ccc3c(C(N)=O)c(NC(=O)c4ccc(C(C)(C)C)cc4)sc3c2)CC1 | 76.2% (inactive)
* CN(C)C(=O)C1=NC(CO)C(=O)N(c2ccc(Cl)cc2)N1 (stereo not given) | 102% (inactive)
* Cn1ccnc1C(=O)/C=C/c1ccc(C(=O)Nc2ccc(NC(=O)CCNC(=O)c3csc(Br)n3)cc2)cc1 | 60.6% (inactive)
* Cc1ccc(/C=C/CC(=O)Nc2ccc(C(=O)Nc3ccc(F)cc3N)nc2)cn1 | 60% (inactive)
* CC(C)Sc1nc(NC2CC2)c(C#N)c(-c2ccccc2)n1 | 90% (inactive)
* CCN1C(=O)N(CC)C2SC(N/N=C/c3ccc(OC)cc3)=NC21 (stereo not given) | 23% (inactive)
* N#Cc1c(-c2cccs2)cc(-c2cnccn2)nc1SCC(=O)NNC(=S)Nc1ccc(F)cc1 | 94.7% (inactive)
* CCN1CCN(c2cc(C(=O)Nc3nc4ccc(Oc5ccnc(C(=O)NC)c5)cc4s3)cc(C(F)(F)F)c2)CC1 | 111% (inactive)
* NCCN1CCN(c2nc(-c3ccccc3)nc3nc(-c4ccccc4)oc23)CC1 | -19.7% (active)
* O=C(Nc1cccc(-c2nc(-c3ccc(NC(=O)c4cccs4)cc3Cl)no2)c1)Nc1ccc(NC(=O)C2CC2)c(C(F)(F)F)c1 | -17.7% (active)
* COc1ccc(/C=C/C(=O)c2nnn(-c3ccc(C(=O)O)cc3)c2C)cc1OC | 96.3% (inactive)
* COc1ccc2oc3c4[nH]c5ccccc5c4c4c(c3c2c1)C(=O)N(O)C4=O | 95.2% (inactive)
* COc1ccc(C2C(C#N)=C(N)Oc3c2sc2ccc(C)cc32)cc1 (stereo not given) | 38.6% (inactive)
* COc1cc(CNC(=O)/C=C/c2ccccc2)ccc1OCC(=O)NO | 98.9% (inactive)
* Cc1cn(-c2cc(NC(=O)c3cncc(C#Cc4cnc5ccc(O[C@@H]6CCOC6)nn45)c3)cc(C(F)(F)F)c2)cn1 | -7.45% (active)
* C/C(=C(/c1ccc(O)cc1)c1ccc(OCCN(C)C)cc1)c1ccc(Cl)cc1 | 59.7% (inactive)
* CCn1c2ccc(/C=N/NS(=O)(=O)CCN(C)C)cc2c2cc(/C=N/NS(=O)(=O)CCN(C)C)ccc21 | 100% (inactive)
* COc1ccc2c(c1)oc1c3[nH]c4ccccc4c3c3c(c21)C(=O)N(O)C3=O | 32.6% (inactive)
* O=C(Nc1ccc(-c2nc(-c3cccc(O)c3)c(-c3ccnc(Br)c3)[nH]2)cc1)c1ccccc1 | 23.3% (inactive)
* NS(=O)(=O)c1ccc(Nc2nc(N/N=C/c3ccc(C(F)(F)F)cc3)nc(Nc3ccccc3)n2)cc1 | 33.8% (inactive)
* Cc1cc2nc(C(Cl)Cl)nc(-c3ccco3)n2n1 | 62.8% (inactive)
* N/C(=N\c1nc2ccc([N+](=O)[O-])cc2s1)C(Cl)(Cl)Cl | 61.2% (inactive)
* Cc1cnc2nc(NN)[nH]n12 | 95.3% (inactive)
* C=CCn1c(SCC(=O)c2ccc(OC)cc2)nnc1-c1ccc(OC)cc1 | 99.7% (inactive)
* COc1ccc(-c2cc(-c3cccc4ccccc34)n3c(n2)nc2ccccc23)cc1 | 39.9% (inactive)
* COc1ccc(NC(=O)[C@H](C)NC(=O)OC(C)(C)C)cc1C(=O)Nc1cccc(-c2cc(=O)c3c(OC)c(OC)c(OC)cc3o2)c1 | 16.9% (inactive)
* O=C(CSc1ccc(-c2nc3ccccc3[nH]2)cn1)N1CCN(c2ccccc2F)CC1 | 89.8% (inactive)
* O=c1[nH]c2cc(Cl)ccc2n1C1CCN(c2ccc3nnc(Cl)n3n2)CC1 | 92.6% (inactive)
